Measured EC50, listed per entry.
# Tested on: Symmetric Di-methyl Arginine (SDMA) signal (PRMT5 inhibition) in HCT116 MTAP-deleted cells
# assay_details: Symmetric di-methyl arginine image-based high content screen assay (SDMA assay), HCT116 MTAP-deleted
# Type: cell-based
# condition_details: Homo sapiens, HCT-116, HCT116 MTAP-deleted, class symbols

{"molecule": "Cc1ncn2c1c(N)nc1cnc(C(=O)N3CC[C@H]4C[C@@H]3c3ccc(C(F)(F)F)c(F)c3O4)cc12", "EC50": "1 to 5 nM"}
{"molecule": "Nc1nc2cnc(C(=O)N3CCC[C@@H]4Oc5cc(OC(F)(F)F)ccc5[C@@H]43)cc2n2cncc12", "EC50": "≤ 1 nM"}
{"molecule": "Nc1nc2cnc(C(=O)N3CCC[C@@H]4Oc5cc(OC(F)(F)F)c(F)cc5[C@@H]43)cc2n2cncc12", "EC50": "≤ 1 nM"}
{"molecule": "Cc1ncn2c1c(N)nc1cc(F)c(C(=O)N3CCC[C@@H]4Oc5cc(C(F)(F)C(F)(F)F)ncc5[C@@H]43)cc12", "EC50": "1 to 5 nM"}
{"molecule": "CCN(Cc1ccc(C(F)(F)F)cc1F)C(=O)c1ccc2nc(N)c3cncn3c2c1", "EC50": "1 to 5 nM"}
{"molecule": "[2H]C1([2H])CC[C@@H]2Oc3cc(C(F)(F)F)ccc3[C@@H]2N1C(=O)c1cc2c(cn1)nc(N)c1cncn12", "EC50": "≤ 1 nM"}
{"molecule": "Nc1nc2cc(F)c(C(=O)N3CCC(c4ccc(C(F)(F)F)cc4F)C3)cc2n2cncc12 (stereo not drawn)", "EC50": "> 5 nM"}
{"molecule": "CN(C(=O)c1cc2c(cc1F)nc(N)c1cncn12)[C@@H]1COc2cc(Cl)ccc21", "EC50": "≤ 1 nM"}
{"molecule": "C[C@H](c1ncccn1)N(Cc1ccc(C(F)(F)F)cn1)C(=O)c1ccc2nc(N)n3cncc3c2c1", "EC50": "1 to 5 nM"}
{"molecule": "CN(C(=O)c1cc2c(cc1F)nc(N)c1cncn12)[C@@H]1COCc2cc(-c3ccn(C(F)(F)F)n3)ccc21", "EC50": "1 to 5 nM"}
{"molecule": "Nc1nc2cnc(C(=O)N3CC[C@H]4C[C@@H]3c3ccc(OC(F)(F)F)cc3O4)cc2n2cncc12", "EC50": "1 to 5 nM"}
{"molecule": "Cc1cn(-c2ccc3c(c2)OC[C@H]3N(C)C(=O)c2cc3c(cc2F)nc(N)c2cncn23)cn1", "EC50": "1 to 5 nM"}
{"molecule": "[2H]C1([2H])CC[C@@H]2Oc3cc(C(F)(F)F)ccc3[C@@H]2N1C(=O)c1ccc2nc(N)c3cncn3c2c1", "EC50": "≤ 1 nM"}
{"molecule": "Cc1nc(C)n2c1c(N)nc1ccc(C(=O)N(C)[C@@H]3COCc4cc(Br)ccc43)cc12", "EC50": "1 to 5 nM"}
{"molecule": "Nc1nc2cc(F)c(C(=O)N3CC4CC(C3)c3ccccc34)cc2n2cncc12", "EC50": "> 5 nM"}

Cited source: patent US12448388B2
